Provide the recorded koff for the entries that follow.
Target: T1, human IgG antibody (human)
T1 construct: Injected at 10 to 3000 nM over the immobilised ligands in SPR
Experiment: SPR (Biacore), ligand immobilised on CM5
Ends that are not written are not given here. peg8 = octa(ethylene glycol) chain, 8 ethylene glycol units
Give bare numbers, in s⁻¹.

| binder | koff (s⁻¹) |
| --- | --- |
| EAQQSAFY (Synthetic peptide, immobilised on a CM5 sensor chip; also called immobilized carrier N) [polypeptide as set forth in SEQ ID NO: 14 (EAQQSAFY)] | 0.00014 |
| Ac-EQQNAFYEILHK (Synthetic peptide, immobilised on a CM5 sensor chip; also called immobilized carrier U) [polypeptide Ac-EQQNAFYEILHK (SEQ ID NO: 21)] | 0.00016 |
| KKKEQQNAFYKKK (Synthetic peptide, immobilised on a CM5 sensor chip; also called immobilized carrier F) [polypeptide as set forth in SEQ ID NO: 6 (KKKEQQNAFYKKK)] | 0.00015 |
| EQQNAFYGGGKGGGEQQNAFY (Synthetic fusion polypeptide of two EQQNAFY units with a GGGKGGG linker, immobilised on a CM5 sensor chip; also called immobilized carrier H) [polypeptide as set forth in SEQ ID NO: 8 (EQQNAFYGGGKGGGEQQNAFY)] | 0.00015 |
| peg8-EQQNAFYE (Synthetic peptide, immobilised on a CM5 sensor chip; also called immobilized carrier X) [polypeptide H2N-(peg)8-EQQNAFYE (SEQ ID NO: 24)] | 0.00013 |
| EAQQNAFY (Synthetic peptide, immobilised on a CM5 sensor chip; also called immobilized carrier P) [polypeptide as set forth in SEQ ID NO: 16 (EAQQNAFY)] | 0.00019 |
| Ac-KKKEQQNAFYKKK (Synthetic peptide, immobilised on a CM5 sensor chip; also called immobilized carrier V) [polypeptide Ac-KKKEQQNAFYKKK (SEQ ID NO: 22)] | 0.00015 |
| EQQNAFYEILHL (Synthetic peptide, immobilised on a CM5 sensor chip; also called immobilized carrier D) [polypeptide as set forth in SEQ ID NO: 4 (EQQNAFYEILHL)] | 0.00013 |
| EQQNAFY-NH2 (Synthetic peptide, immobilised on a CM5 sensor chip; also called immobilized carrier S) [polypeptide EQQNAFY-NH2 (SEQ ID NO: 19)] | 0.00015 |
| EGQNAFY (Synthetic peptide, immobilised on a CM5 sensor chip; also called immobilized carrier E) [polypeptide as set forth in SEQ ID NO: 5 (EGQNAFY)] | 0.0002 |

Hello, I would appreciate it if you could give koff for each entry below.
1. EQSAFY (Synthetic peptide, immobilised on a CM5 sensor chip; also called immobilized carrier O) [polypeptide as set forth in SEQ ID NO: 15 (EQSAFY)]
2. EQQSAFY (Synthetic peptide, immobilised on a CM5 sensor chip; also called immobilized carrier J) [polypeptide as set forth in SEQ ID NO: 10 (EQQSAFY)]

1. 0.00014
2. 0.00015
